# measured.target: T1, human IL-2 (recombinant IL-2, Humanzyme) (human, UniProt P60568 21-153)
# T1 construct: It may include the signal peptide; also called hIL-2; interleukin-2
# T1 sequence (P60568 21-153 limits assumed): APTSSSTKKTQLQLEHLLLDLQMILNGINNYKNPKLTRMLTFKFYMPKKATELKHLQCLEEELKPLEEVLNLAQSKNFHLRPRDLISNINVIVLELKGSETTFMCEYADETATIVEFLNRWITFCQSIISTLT
# test.method.notes: SPR as in Example 1 (IgG captured, IL-2 injected)
observable: kon (M⁻¹ s⁻¹)

binder | recorded.number
F5.1.11.08 (antibody, V domains shown) VH: QLQLQESGPGLVKPSQTLSLTCTVSGGSISSGGYYWSWIRQHPGKGLEWIGYIYKSGSNYWNPSLKSRVTISVDTSKNQFSLKLSSVTAADTAVYYCARTPTVTGDWFDPWGRGTLVTVSS VL: NFMLTQPHSVSESPGKTVTISCTRSSGSIASNYVQWYQQRPGSSPTTVIYEDNQRPSGVPDRFSGSIDSSSNSASLTISGLKTEDEADYYCQTYDSIDVYFGGGTKLTVL | 2.21e+06
